Taken from ChEMBL document CHEMBL1140684.

Target sequence: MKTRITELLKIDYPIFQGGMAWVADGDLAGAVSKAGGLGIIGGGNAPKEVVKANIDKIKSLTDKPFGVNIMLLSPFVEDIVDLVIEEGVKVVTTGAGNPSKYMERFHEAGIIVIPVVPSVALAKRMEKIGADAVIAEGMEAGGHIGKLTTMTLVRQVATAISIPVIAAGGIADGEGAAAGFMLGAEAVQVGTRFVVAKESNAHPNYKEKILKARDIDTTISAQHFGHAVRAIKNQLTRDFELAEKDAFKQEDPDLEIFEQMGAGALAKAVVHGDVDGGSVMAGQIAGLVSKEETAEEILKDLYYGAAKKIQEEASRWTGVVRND
Criterion: IC50 strictly under 8 µM. Met: Criterion met. Not met: Criterion not met.

A selection of reference data follows.
CS(=O)(=O)c1ccc2nc(NC(=O)NCc3cccs3)sc2c1    Criterion not met
CS(=O)(=O)c1ccc2nc(NC(=O)NCc3cccnc3)sc2c1    Criterion not met
O=C(NCc1nc2ccccc2[nH]1)Nc1nc2ccccc2s1    Criterion not met
CS(=O)(=O)c1ccc2nc(NC(=O)NCc3nc4ccccc4[nH]3)sc2c1    Criterion met
Nc1nc2ccc(C(=O)O)cc2s1    Criterion not met
COc1ccc2nc(NC(=O)NCc3nc4ccccc4[nH]3)sc2c1    Criterion met
CS(=O)(=O)c1ccc2nc(NC(=O)NCc3nc(-c4ccccc4)c[nH]3)sc2c1    Criterion met

--- query ---
Q: Please determine if O=C(O)CSc1nc2ccccc2[nH]1 is below 8 µM in terms of IC50.
Result: Criterion not met
